Target: High affinity choline transporter 1 (Homo sapiens) (UniProt Q9GZV3)
Sequence (Q9GZV3 whole entry, looked up): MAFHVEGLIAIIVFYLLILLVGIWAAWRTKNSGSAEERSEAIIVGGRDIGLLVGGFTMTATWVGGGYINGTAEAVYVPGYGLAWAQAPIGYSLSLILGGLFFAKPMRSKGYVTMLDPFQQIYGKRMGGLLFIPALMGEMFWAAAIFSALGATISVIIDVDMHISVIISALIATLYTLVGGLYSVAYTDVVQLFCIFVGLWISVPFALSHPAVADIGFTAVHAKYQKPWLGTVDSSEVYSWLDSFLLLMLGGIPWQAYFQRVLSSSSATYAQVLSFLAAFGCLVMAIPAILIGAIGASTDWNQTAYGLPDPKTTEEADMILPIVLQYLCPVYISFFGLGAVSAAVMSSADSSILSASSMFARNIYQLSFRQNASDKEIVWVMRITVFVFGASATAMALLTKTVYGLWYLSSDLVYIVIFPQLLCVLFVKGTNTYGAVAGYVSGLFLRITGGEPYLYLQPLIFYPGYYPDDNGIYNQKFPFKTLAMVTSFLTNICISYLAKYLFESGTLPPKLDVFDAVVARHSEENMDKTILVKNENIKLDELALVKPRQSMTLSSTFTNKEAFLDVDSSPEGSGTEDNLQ
Assay: human choline transporter potentiators – cell-based, membrane potential dye, duplicate, confirmation (AID 504833)
Settings: CHT-expressing cells, membrane potential dye fluorescence (FDSS); at 10 µM; hits give high values; % of choline EC20–EC90 response window; HEK293 expressing CHT LV-AA mutant; choline added at its EC20
The whole screen tested about 2,500 compounds, of which about 2,200 (88%) were called active. The set was probably picked from earlier hits. Not all results are given here.
measured-quantity: activation (%)
Provide only the numeric value, understood in %.

Problem: Hello, I am looking for reported activation with High affinity choline transporter 1 (Homo sapiens) (UniProt Q9GZV3) for Cc1cc(NC(=O)c2cnn3cccnc23)n(-c2ccccc2)n1 . Could you help?
Result: 52.8

Problem: O=[N+]([O-])c1ccc(N2CCNCC2)cc1NCc1cccnc1 , same question.
Result: 52.9

Problem: Item: Cc1c(CCOC(=O)CC23CC4CC(CC(C)(C4)C2)C3)sc[n+]1Cc1ccc([N+](=O)[O-])cc1
Result: 26.9

Problem: // same read-out, input: Cn1c(=NC(=O)c2cnccn2)sc2ccccc21
Result: 55.7

Problem: Same for C[C@H]1CCC(=O)N([C@H](CSc2ccccc2)Cc2ccccc2)CC1
Result: 12

====

Biological target: High affinity choline transporter 1 (Homo sapiens) (UniProt Q9GZV3)
Assay: human choline transporter potentiators – cell-based, membrane potential dye, duplicate, confirmation (AID 504833)
Settings: CHT-expressing cells, membrane potential dye fluorescence (FDSS); at 10 µM; % of choline EC20–EC90 response window; HEK293 expressing CHT LV-AA mutant; choline added at its EC20
Among all 2,500 compounds or so, about 2,200 (88%) were called active.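 The calls were made as follows: active = primary screen active, with duplicate mean activation above negative control mean plus 3 SD (cut at about 11% in these data); inactive = the rest.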 So high a share suggests a set chosen from earlier hits. The list is a sample of the results.
Choose the fitting class; nothing outside active, inactive is accepted.

Problem: Check the results log: what was the call for CC1=CC(C)(C)N(C(=O)CSc2nnc(-c3ccccc3)o2)c2ccc(C)cc21 ?
Result: inactive

Problem: Same for CC1(C)Cc2c(sc3nc4n(c(=N)c23)CCCCC4)CO1
Result: active

Problem: Now give it for Cc1nc2c(-c3ccccc3)c(C)[nH]n2c(=O)c1Cl too.
Result: inactive

Problem: Moving on to Clc1ccc(COn2c(-c3ccc(Cl)cc3Cl)nc3ncccc32)cc1
Result: active

Problem: What about COc1cc2c(cc1OC)C(Nc1ccc(S(N)(=O)=O)cc1)=NC(C)(C)C2 ?
Result: active

Problem: Same for CCN1CCN(c2ccc([N+](=O)[O-])cc2C(=O)c2ccc(Cl)cc2)CC1
Result: active

Problem: Also, O=C(CCC1CCN(C(=O)c2cccc(Cl)c2F)CC1)Nc1ccccc1 please.
Result: active

Problem: Subsequent entry: Cc1nnc(C)c2c(C)n(N)c(C)c12
Result: active

Problem: Let us now turn to COc1cc2c(cc1OC)C(c1cccc([N+](=O)[O-])c1)=NCC2
Result: active

Problem: // same read-out, input: COC(=O)c1ccc(C(NC(=O)OCc2ccccc2)/C(C)=C/[C@@H](C)C(=O)NCc2ccc(OC)c(OC)c2)cc1 (some centres not stated)
Result: active

Problem: Try the compound O=C(c1ccccc1F)N(Cc1ccccc1)Cc1ccccc1
Result: active

Problem: And for CCOc1ccc(C2c3[nH]c4ccccc4c3CCN2Cc2cccn2-c2ncccn2)cc1 (configuration not stated) ?
Result: active

Problem: Here is the next compound: O=C1c2ccccc2C(=O)c2c1cccc2N1CCN(CCO)CC1
Result: active

Problem: Queued: O=C(c1ccc(F)c(S(=O)(=O)N2CCOCC2)c1)N(CCc1ccccc1)Cc1ccccc1
Result: active

Problem: Now the compound O=C(COC(=O)C1CCN(S(=O)(=O)c2ccc3c(c2)OCCO3)CC1)Nc1ccccc1OC(F)F
Result: inactive

Problem: Cc1c(C)c2c(OCC(=O)N[C@@H](C(=O)O)c3ccccc3)cc3c(c2oc1=O)CCC(C)(C)O3 , same question.
Result: inactive

Problem: Another compound to look at: COc1ccccc1NC(=O)C1=C(C)Nc2nc3ccccc3n2C1c1cccs1 (configuration not stated)
Result: active

Problem: Repeat for the following compound: Cc1nc(N=C(N)N)nc2c(C)cccc12
Result: active

Problem: // query: CN(C)c1cc[n+](Cc2ccccc2)cc1
Result: active

Problem: Now consider CN1CCc2c(sc3c2c(NCc2ccco2)nc2nnnn23)C1 and answer again.
Result: active

Problem: Moving on to the next compound: Cc1ccc(C(=O)c2ccc(N3CCN(C)CC3)c([N+](=O)[O-])c2)cc1
Result: inactive

Problem: Let us now turn to COc1nc(N=C(N)N)nc2c(C)cccc12
Result: active

====

Target: High affinity choline transporter 1 (Homo sapiens)
Assay: human choline transporter potentiators – cell-based, membrane potential dye, duplicate, confirmation (AID 504833)
Conditions: CHT-expressing cells, membrane potential dye fluorescence (FDSS); at 10 µM; hits give high values; % of choline EC20–EC90 response window; HEK293 expressing CHT LV-AA mutant; choline added at its EC20
Out of some 2,500 compounds screened, about 2,200 (88%) were called active. So high a share suggests a set chosen from earlier hits. The list is a sample of the results.
measured-quantity: activation (%)
Give the number; % is assumed, so skip it.

Problem: For the compound Cc1ccc2c(c1)N(CC(=O)N(Cc1ccccn1)Cc1ccco1)C(=O)C(C(C)C)O2 (stereo not given) , what activation is on record?
Result: 30.6

Problem: Thanks! And Cn1c(=O)n(Cc2ccco2)c(=N)c2c3c(sc21)CCCC3 ?
Result: 30.6

Problem: Please answer likewise for Nc1scc[n+]1Cc1cccc2cccnc12
Result: 42.7

Problem: How about Cc1nc2ccccc2c2oc(C(=O)NCCCN3CCC(C)CC3)cc12 ?
Result: 13.8

Problem: And Cc1nnc(-c2ccc(Oc3ccc(C)c(C)c3)c([N+](=O)[O-])c2)o1 ?
Result: 15

Problem: Also Cn1c(=O)n(C)c2cc(C(=O)Nc3ccc4c(c3)OCO4)ccc21 , if possible.
Result: 43.2

Problem: Next compound up: CC(=O)c1ccccc1OCc1ccc(C(=O)c2ccccc2)cc1
Result: 25

Problem: And CC(C)(C)Nc1nc(-c2ccccn2)nc2ccccc12 ?
Result: 57.4

Problem: Now consider COc1ccc(C(O)(C2CCCCC2)C(CN2CCCC2)c2ccccc2)cc1 (stereo not given) .
Result: 35.9

Problem: Can you handle CN(C)c1ccnc(Nc2ccc(F)cc2)c1C#N next?
Result: 52.3

src = PubChem BioAssay AID504833
